Measured log2 fold change of degron read counts of individual entries
# Subject of test: T1, CRBN, Q96SW2
# T1 chain: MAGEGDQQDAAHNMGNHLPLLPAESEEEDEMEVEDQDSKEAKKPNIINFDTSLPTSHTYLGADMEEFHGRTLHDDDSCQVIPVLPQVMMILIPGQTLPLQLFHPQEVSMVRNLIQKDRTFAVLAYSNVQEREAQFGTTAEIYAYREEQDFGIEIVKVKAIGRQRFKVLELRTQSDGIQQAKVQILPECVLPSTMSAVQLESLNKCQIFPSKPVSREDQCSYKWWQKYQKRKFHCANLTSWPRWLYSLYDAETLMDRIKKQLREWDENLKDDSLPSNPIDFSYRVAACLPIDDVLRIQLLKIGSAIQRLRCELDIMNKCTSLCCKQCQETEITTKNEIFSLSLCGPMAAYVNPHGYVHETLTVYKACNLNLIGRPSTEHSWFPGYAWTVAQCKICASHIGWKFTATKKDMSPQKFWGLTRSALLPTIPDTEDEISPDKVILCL
# Test details: log2 fold change of degron read counts, EGFP-low vs EGFP+ sorted cells (limma voom), compound-induced degradation; higher = more compound-induced degradation of the degron-EGFP fusion; degrons are variants of IKZF1/3 zinc finger 2; compound dose not given here;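 further: pooled lentiviral library of zinc finger degron-EGFP fusions in mCherry-positive Jurkat cells, FACS-sorted after compound exposure, with degron abundance counted by next-generation sequencing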
# Run parameters: Jurkat; 18 h; compound: compound 33 (diphenyl IMiD analogue)
In all, about 8,300 sequences were measured (“log2 fold change of degron read counts, EGFP-low vs EGFP+ sorted cells (limma voom), compound-induced degradation”: median about -1.1, highest 2% from about 3.2 on). The full list was thinned out, with the highest values kept by preference.
Would you mind answering with just the numeric figure?

FFCNQCGRDFTQKGNLLRHIKL [46F_47F_49N_50Q_52G_53R_54D_55F_67L_, Q9UKT9] = -3.07
FTCDVCGALFTQKGNLLRHIKL [46F_47T_49D_50V_52G_53A_54L_55F_67L_, Q9UKT9] = -1.1
FWCDQCGAQFTQKGNLLRHIKL [46F_47W_49D_50Q_52G_53A_54Q_55F_67L_, Q9UKT9] = -0.8
FTCEVCGAGFTQKGNLLRHIKL [46F_47T_49E_50V_52G_53A_54G_55F_67L_, Q9UKT9] = 2.42
FKCDICGAEFTQKGNLLRHIKL [46F_47K_49D_50I_52G_53A_54E_55F_67L_, Q9UKT9] = -4.07

stdin: Could you share which log2 fold change of degron read counts value was measured for FMCEICGHIFTQKGNLLRHIKL [46F_47M_49E_50I_52G_53H_54I_55F_67L_, Q9UKT9] ?
stdout: -1.97

stdin: Could you share which log2 fold change of degron read counts value was measured for FFCPICGRMFTQKGNLLRHIKL [46F_47F_49P_50I_52G_53R_54M_55F_67L_, Q9UKT9] ?
stdout: 0.441

stdin: Could you share which log2 fold change of degron read counts value was measured for FHCPICGRQFTQKGNLLRHIKL [46F_47H_49P_50I_52G_53R_54Q_55F_67L_, Q9UKT9] ?
stdout: 1.45

stdin: Could you share which log2 fold change of degron read counts value was measured for FFCPICGRWFTQKGNLLRHIKL [46F_47F_49P_50I_52G_53R_54W_55F_67L_, Q9UKT9] ?
stdout: -0.146

stdin: Could you share which log2 fold change of degron read counts value was measured for FECEVCGAPFTQKGNLLRHIKL [46F_47E_49E_50V_52G_53A_54P_55F_67L_, Q9UKT9] ?
stdout: 0.683

stdin: Could you share which log2 fold change of degron read counts value was measured for FYCEQCGAEFTQKGNLLRHIKL [46F_47Y_49E_50Q_52G_53A_54E_55F_67L_, Q9UKT9] ?
stdout: -0.311

stdin: Could you share which log2 fold change of degron read counts value was measured for FMCEICGHTFTQKGNLLRHIKL [46F_47M_49E_50I_52G_53H_54T_55F_67L_, Q9UKT9] ?
stdout: -2.78

stdin: Could you share which log2 fold change of degron read counts value was measured for FGCEICGAWFTQKGNLLRHIKL [46F_47G_49E_50I_52G_53A_54W_55F_67L_, Q9UKT9] ?
stdout: 0.513

stdin: Could you share which log2 fold change of degron read counts value was measured for FNCPQCGADFTQKGNLLRHIKL [46F_47N_49P_50Q_52G_53A_54D_55F_67L_, Q9UKT9] ?
stdout: -2.75

stdin: Could you share which log2 fold change of degron read counts value was measured for FMCEICGHLFTQKGNLLRHIKL [46F_47M_49E_50I_52G_53H_54L_55F_67L_, Q9UKT9] ?
stdout: -2.2

stdin: Could you share which log2 fold change of degron read counts value was measured for LYCPICGFTCTQKGNLLRHIKL [46L_47Y_49P_50I_52G_53F_54T_55C_67L_, Q9UKT9] ?
stdout: 2.97

stdin: Could you share which log2 fold change of degron read counts value was measured for FACDQCGAIFTQKGNLLRHIKL [46F_47A_49D_50Q_52G_53A_54I_55F_67L_, Q9UKT9] ?
stdout: -2.17

stdin: Could you share which log2 fold change of degron read counts value was measured for FFCNQCGRKFTQKGNLLRHIKL [46F_47F_49N_50Q_52G_53R_54K_55F_67L_, Q9UKT9] ?
stdout: -2

Values from the supplement of paper PMC12645437
